Values were extracted from PubChem BioAssay (NCI).

Tested on: T-47D breast
Test: NCI-60 one-dose screen, 48 h (100 = growth as untreated, 0 = no growth, -100 = all killed)
Conditions: 10 µM unless noted
This is part of a sample that, as a whole, favours compounds with a hit. Of some 83,000 tested, about 20% had one in any assay.
Some compounds, each annotated with its measured growth.
QUANTITY KIND: growth (%)

# COMPOUND, TEST SYSTEM, QUANTITY KIND, UNIT TEXT, MEASUREMENT
data = [
    ("Cc1nn(-c2ccccc2)c2c1C(c1ccc([N+](=O)[O-])cc1)C(C#N)=C(N)O2 (stereo not given)", "T-47D breast", "growth", "%", 98.4),
    ("O=C(C[C@@]1(O)C(=O)Nc2c(Cl)ccc(Cl)c21)c1ccc(C2CC2)cc1", "T-47D breast", "growth", "%", 40.5),
    ("O=C1CCC(N2C(=O)c3cccc(NCCCC4CCN(CCNC(=O)c5cc6c(o5)C(=O)c5ccccc5C6=O)CC4)c3C2=O)C(=O)N1 (stereo not given)", "T-47D breast", "growth", "%", -5.59),
    ("CCNCCNc1cc(-c2ccc(C#N)cc2)c(C#N)c2nc3ccccc3n12", "T-47D breast", "growth", "%", 37.5),
    ("COc1cc(C2CC(c3ccc(Nc4nc(Nc5ccc(F)cc5)nc(Nc5ccc(Cl)cc5)n4)cc3)=NN2C(C)=O)cc(OC)c1OC (stereo not given)", "T-47D breast", "growth", "%", 19),
]

----------
Test system: SF-295 CNS
Assay: NCI-60 one-dose screen, 48 h (100 = growth as untreated, 0 = no growth, -100 = all killed)
Settings: 10 µM unless noted
About 83,000 compounds went through this panel and 20% of them were active in at least one assay; those are over-represented in the sample as a whole.
Would you please tag the item condition met when its growth is 50% or above, and condition not met when it is below?

# COMPOUND, TEST SYSTEM, LABEL VALUE
data = [
    ("Cc1cc(N(CCCNc2ccnc3cc(Cl)ccc23)Cc2ccccn2)nc(N2CCOCC2)n1", "SF-295 CNS", "condition met"),
    ("COc1ccccc1C(=O)NC(=S)Nc1ccc(-c2nc3ccccc3[nH]2)cc1", "SF-295 CNS", "condition met"),
    ("Cc1nc(Nc2ccc(NC(=S)Nc3ccccc3)cc2)nc2nc(SCc3ccccc3)[nH]c(=O)c12", "SF-295 CNS", "condition met"),
    ("CN1CCN(CCCOc2ccc3nc(Nc4cc(Cl)cc(Cl)c4)ccc3c2)CC1", "SF-295 CNS", "condition not met"),
    ("N#Cc1c(NC(=O)c2ccc(Br)cc2)sc2c1CCCC2", "SF-295 CNS", "condition not met"),
    ("COc1ccc(-c2nc3sc4c(c3c(=O)[nH]2)CCCC4)c2ccccc12", "SF-295 CNS", "condition not met"),
    ("Cl.Fc1c[c-]c(-c2ccccn2)c(F)c1.[Pt].c1ccc([PH+](C[PH+](c2ccccc2)c2ccccc2)c2ccccc2)cc1", "SF-295 CNS", "condition not met"),
    ("Clc1ccc2[nH]c3c(NCCCN4CCOCC4)ncnc3c2c1", "SF-295 CNS", "condition met"),
    ("Cc1c2c(cn1Cc1ccccc1)CCc1cn[nH]c1-2", "SF-295 CNS", "condition met"),
    ("CCc1cc(Cc2cc(CC)cc(C(C)(C)C)c2O)c(O)c(C(C)(C)C)c1", "SF-295 CNS", "condition not met"),
    ("N#Cc1cccc(-c2nc3ccccn3c2NCCN2CCOCC2)c1", "SF-295 CNS", "condition met"),
    ("CC(=O)Nc1cccc(C2=CC(c3ccc(C)cc3)n3ncnc3N2)c1 (centres undefined)", "SF-295 CNS", "condition met"),
    ("C=C1c2c(C)nn(-c3ccc(N)cc3)c2N(C)C23CC1C1(C)c4c(C)nn(-c5ccc(N)cc5)c4N(C)C(C)(CC12)C3 (centres undefined)", "SF-295 CNS", "condition met"),
    ("N#Cc1c(N)n2c(nc1=Nc1ccc([N+](=O)[O-])cc1)sc1cc(Cl)ccc12", "SF-295 CNS", "condition not met"),
    ("COc1ccc(-c2nnc(-c3ccc4c(c3)nc(-c3ccccc3)n4C3CCCCC3)o2)cc1", "SF-295 CNS", "condition met"),
    ("N#Cc1c(N)n2c(nc1=Nc1ccc(Cl)cc1)sc1cc(Cl)ccc12", "SF-295 CNS", "condition not met"),
    ("CC1(C)C(=O)/C(=C\\c2cccnc2)C[C@]2(C)[C@H]3CC=C4[C@@H]5C[C@@](C)(C(=O)O)CC[C@]5(C)CC[C@@]4(C)[C@]3(C)CC[C@@H]12", "SF-295 CNS", "condition met"),
    ("COc1cc2cc(Oc3ccc(NC(=O)Nc4cc(C(F)(F)F)cc(C(F)(F)F)c4)cc3)c(C)nc2cc1OCCN1CCCCC1", "SF-295 CNS", "condition not met"),
    ("Clc1ccc(/C=C/c2nc(Nc3ccc(Cl)cc3)c3ccccc3n2)cc1", "SF-295 CNS", "condition met"),
]
